Provenance of the data: the supplement of paper PMC6757056

B1: library; a variant is named by its letters at N, in order (parent)
chain: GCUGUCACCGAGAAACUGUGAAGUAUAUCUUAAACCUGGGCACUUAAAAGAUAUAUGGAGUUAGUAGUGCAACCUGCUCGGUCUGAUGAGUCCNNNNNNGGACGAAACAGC

# Variants of: B1
# Procedure summary: normalized RNA/DNA level without ligand (relative to sTRSVctl = 100) (log10 (% of sTRSVctl)); HEK293T; ligand: cyclic di-GMP (c-di-GMP-II aptamer); higher = less ribozyme self-cleavage, higher mRNA level
# Condition set: reporter: mCherry (pCS4076), ligand present: no
Measured metric: normalized RNA/DNA level without ligand (log10)
The answer should be written as a number, with no unit following it.

Field: example entries. Status: answers known.
>  <Mutant label>
AUGCUG

>  <Quantitative readout>
1.68

$$$$
>  <Mutant label>
AGAGUU

>  <Quantitative readout>
1.6

$$$$
>  <Mutant label>
ACUGAA

>  <Quantitative readout>
1.43

$$$$
>  <Mutant label>
UCCGUC

>  <Quantitative readout>
1.75

$$$$

Entry under review: `AAUCUG` . Reported normalized RNA/DNA level without ligand (log10)?
1.62

Check `AGUCUU` too.
1.73

Check `CUUGCA` too.
1.66

Check `AGCGCA` too.
1.66
